Test system: intracellular proteome of ENR+CD and ENR organoids
method_summary: LC-MS/MS TMT proteomics of ENR+CD versus ENR organoids
Format: cell-based, C57BL/6 mice
particulars: up = enriched in ENR+CD, down = enriched in ENR; FDR<0.05 and log fold change cut-off
reported_property: change

1) O88803 (protein, UniProt O88803 1-151, looked up, full-length) MIPTTILISAALLSSALAGPWANICASKSSNEIRTCDSYGCGQYSAQRTQRHHPGVDVLCSDGSVVYAPFTGKIVGQEKPYRNKNAINDGIRLSGRGFCVKIFYIKPIKYKGSIKKGEKLGTLLPLQKIYPGIQSHVHVENCDSSDPTAYL
up
2) P0C027 (protein, UniProt P0C027 1-164, looked up, full-length) MKCKPNQTRTYDPEGFKKRAACLCFRSEREDEVLLVSSSRYPDRWIVPGGGMEPEEEPDGAAVREVYEEAGVKGKLGRLLGVFEQNQDRKHRTYVFVLTVTELLEDWEDSVSIGRKREWFKIEDAIKVLQCHKPVHAEYLEKLKLGGSPTNGNSAAPSPPESEP
up
